tested on: HCT-116 colon; experiment: NCI-60 one-dose screen, 48 h (100 = growth as untreated, 0 = no growth, -100 = all killed); conditions: 10 µM unless noted
The panel holds about 83,000 compounds, 20% with a hit somewhere; the sample as a whole holds those more often.
Collected growth values appear next to each entry.
Lab book: enter the figure in %, no units written.

{"compound": "Cc1nn(-c2ccccc2)c2nc3nc4c(c(N)c3c(-c3ccc(Cl)cc3)c12)CCCC4", "target-entity": "HCT-116 colon", "quantity-name": "growth", "quantitative-readout": 80.2}
{"compound": "Cc1ccc(-c2c3c(N)c4c(nc3nc3c2c(C)nn3-c2ccccc2)CCCC4)cc1", "target-entity": "HCT-116 colon", "quantity-name": "growth", "quantitative-readout": 90.2}
{"compound": "CCN(CC)c1ccc2c(c1)OS(=O)(=O)N=C2", "target-entity": "HCT-116 colon", "quantity-name": "growth", "quantitative-readout": 99.5}
{"compound": "CC(C)NCC(O)COc1ccc(CCOCC2CC2)cc1 (stereo not given)", "target-entity": "HCT-116 colon", "quantity-name": "growth", "quantitative-readout": 106}
{"compound": "O=C1c2ccccc2C(=O)c2c(Nc3ccc(CCO)cc3)ccc(O)c21", "target-entity": "HCT-116 colon", "quantity-name": "growth", "quantitative-readout": 68.6}
{"compound": "Cc1nn(-c2ccccc2)c2nc3nc4c(c(N)c3c(-c3ccc(Cl)cc3)c12)CCC4", "target-entity": "HCT-116 colon", "quantity-name": "growth", "quantitative-readout": 58.2}
{"compound": "O=c1[nH]c(=S)[nH]c(=O)n1Cc1cccc2ccccc12", "target-entity": "HCT-116 colon", "quantity-name": "growth", "quantitative-readout": 102}
{"compound": "COc1cc(C2=NN(c3ccc(S(N)(=O)=O)cc3)C(c3ccc(Cl)cc3)C2)cc(OC)c1OC (stereo not given)", "target-entity": "HCT-116 colon", "quantity-name": "growth", "quantitative-readout": 23.2}
{"compound": "CCN1CCN(c2ccc(Nc3ncc4ccc5ncn(C(C)C)c5c4n3)nc2)CC1", "target-entity": "HCT-116 colon", "quantity-name": "growth", "quantitative-readout": 8.77}

Shifting focus to the compound that follows.
(Q) If you can, please state the reported growth value of Cn1cc(C(=O)NCCC(=N)N)cc1NC(=O)CN=C(N)N .
(A) 92.6

Each recorded value in this set is attributed to PubChem BioAssay (NCI).
